target: SpBbc1; assay: SPOT peptide array binding signal intensity (averaged, normalized) (arbitrary units (background-subtracted, floor 0; scale differs between SH3 domains)); higher = stronger binding of the SH3 domain to the peptide
Label Criterion not met if SPOT peptide array binding signal intensity falls below 9; label Criterion met in every other case.

INSERT INTO results (binder, assigned_label) VALUES
  ('EVTPKVPERPSRRKT', 'Criterion met'),
  ('LKHGWKPLRPIKLIS', 'Criterion not met'),
  ('IAPIPMPKPNPTHIS', 'Criterion not met'),
  ('QGYPRQPQRPQRYHP', 'Criterion not met'),
  ('IVNKPLPPLPVAGSS', 'Criterion not met');

Task item: Exam item: decide whether the reported SPOT peptide array binding signal intensity for SSTPTTPERPKRKSG is at least 9.
Reply: Criterion met

Task item: Exam item: decide whether the reported SPOT peptide array binding signal intensity for IPSRPAPKPPSSASA is at least 9.
Reply: Criterion met

Task item: Exam item: decide whether the reported SPOT peptide array binding signal intensity for VPVAPPPPPASLGQS is at least 9.
Reply: Criterion not met

Task item: Exam item: decide whether the reported SPOT peptide array binding signal intensity for SHRLWLYAAPKRPKT is at least 9.
Reply: Criterion not met

Task item: Exam item: decide whether the reported SPOT peptide array binding signal intensity for RNNRPVPPPPPMRTT is at least 9.
Reply: Criterion met

Task item: Exam item: decide whether the reported SPOT peptide array binding signal intensity for AATTSTPPLPRRRAT is at least 9.
Reply: Criterion met

Task item: Exam item: decide whether the reported SPOT peptide array binding signal intensity for KDKSRPPRPPPKPLH is at least 9.
Reply: Criterion not met

Task item: Exam item: decide whether the reported SPOT peptide array binding signal intensity for PAPPPPPRASRPTPN is at least 9.
Reply: Criterion not met

Task item: Exam item: decide whether the reported SPOT peptide array binding signal intensity for RKQRSIPLSPIVPES is at least 9.
Reply: Criterion not met
